Origin of the recorded values: patent US20140088102A1

target.or.test.system: p110δ (Homo sapiens, UniProt O00329)
Sequence (O00329 whole entry): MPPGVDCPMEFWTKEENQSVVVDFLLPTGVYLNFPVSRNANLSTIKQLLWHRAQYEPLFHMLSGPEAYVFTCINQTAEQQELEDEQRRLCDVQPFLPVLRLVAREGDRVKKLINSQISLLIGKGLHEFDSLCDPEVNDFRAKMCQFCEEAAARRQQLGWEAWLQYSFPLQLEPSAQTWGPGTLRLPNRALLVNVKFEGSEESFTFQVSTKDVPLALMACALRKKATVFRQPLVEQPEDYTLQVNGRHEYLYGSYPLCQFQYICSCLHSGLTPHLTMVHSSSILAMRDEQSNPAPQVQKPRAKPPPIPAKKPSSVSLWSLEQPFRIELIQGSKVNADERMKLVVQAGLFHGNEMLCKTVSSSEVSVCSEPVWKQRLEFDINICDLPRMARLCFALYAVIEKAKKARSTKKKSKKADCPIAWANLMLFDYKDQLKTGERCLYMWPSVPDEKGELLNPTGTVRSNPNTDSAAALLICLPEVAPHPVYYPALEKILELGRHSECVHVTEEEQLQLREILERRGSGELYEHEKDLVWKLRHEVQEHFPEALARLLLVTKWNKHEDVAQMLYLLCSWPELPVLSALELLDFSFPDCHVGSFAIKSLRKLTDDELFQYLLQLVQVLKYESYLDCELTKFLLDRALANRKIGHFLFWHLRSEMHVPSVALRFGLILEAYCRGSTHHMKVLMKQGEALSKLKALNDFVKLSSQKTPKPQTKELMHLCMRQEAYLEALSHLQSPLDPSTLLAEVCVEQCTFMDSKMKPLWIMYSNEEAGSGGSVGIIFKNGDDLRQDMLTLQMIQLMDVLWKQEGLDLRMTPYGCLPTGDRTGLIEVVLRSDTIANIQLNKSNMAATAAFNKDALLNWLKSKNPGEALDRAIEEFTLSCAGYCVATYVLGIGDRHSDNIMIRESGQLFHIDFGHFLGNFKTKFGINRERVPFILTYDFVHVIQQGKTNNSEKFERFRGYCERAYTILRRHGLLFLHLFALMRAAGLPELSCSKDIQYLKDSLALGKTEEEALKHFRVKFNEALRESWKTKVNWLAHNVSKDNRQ
Sequence (P27986 whole entry partner): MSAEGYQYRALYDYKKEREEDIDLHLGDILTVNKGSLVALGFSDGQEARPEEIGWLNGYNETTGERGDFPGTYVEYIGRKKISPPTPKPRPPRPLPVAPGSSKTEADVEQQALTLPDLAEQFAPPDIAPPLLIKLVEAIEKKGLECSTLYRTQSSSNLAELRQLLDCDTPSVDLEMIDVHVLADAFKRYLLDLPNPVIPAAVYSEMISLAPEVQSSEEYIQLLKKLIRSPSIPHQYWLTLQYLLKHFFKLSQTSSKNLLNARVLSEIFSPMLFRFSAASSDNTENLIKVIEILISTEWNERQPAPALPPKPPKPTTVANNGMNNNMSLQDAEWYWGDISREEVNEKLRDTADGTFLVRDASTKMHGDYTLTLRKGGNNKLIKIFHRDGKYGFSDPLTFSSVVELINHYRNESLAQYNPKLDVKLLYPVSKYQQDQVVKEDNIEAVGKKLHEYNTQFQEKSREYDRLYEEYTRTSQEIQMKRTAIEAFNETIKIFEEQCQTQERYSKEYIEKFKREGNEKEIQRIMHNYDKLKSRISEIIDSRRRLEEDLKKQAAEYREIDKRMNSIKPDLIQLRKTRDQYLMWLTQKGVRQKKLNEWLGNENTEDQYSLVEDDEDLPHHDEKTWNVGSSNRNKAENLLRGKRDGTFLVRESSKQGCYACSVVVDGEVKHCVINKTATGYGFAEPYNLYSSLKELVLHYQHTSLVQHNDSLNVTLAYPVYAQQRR
assay.name: Luciferase-based luminescence assay (Kinase GLO), PI3K delta
test.settings: 6.86 nM enzyme, 50 μM PIP2, 25 μM ATP, 2 hours
Measured IC50, listed per entry.

[
  {
    "compound": "FC(F)c1nc2ccccc2n1-c1nc(NC2(Cc3ccccc3)CC2)nc(N2CCOCC2)n1 [Compound A5]",
    "IC50": "≤ 100 nM"
  },
  {
    "compound": "FC(F)c1nc2ccccc2n1-c1nc(NC2(Cc3ccccc3)CCC2)nc(N2CCOCC2)n1 [Compound A11]",
    "IC50": "≤ 100 nM"
  },
  {
    "compound": "FC(F)c1nc2ccccc2n1-c1nc(NC2(c3ccccc3)CC2)nc(N2CCOCC2)n1 [Compound A1]",
    "IC50": "≤ 100 nM"
  },
  {
    "compound": "FC(F)c1nc2ccccc2n1-c1nc(NCc2ccccc2)nc(N2CCOCC2)n1 [Ref. 1, reference compound]",
    "IC50": "100 to 200 nM"
  },
  {
    "compound": "FC(F)c1nc2ccccc2n1-c1nc(NC2(c3ccccc3)CCCCC2)nc(N2CCOCC2)n1 [Compound A4]",
    "IC50": "200 to 500 nM"
  },
  {
    "compound": "FC(F)c1nc2ccccc2n1-c1nc(NC2(Cc3ccccc3)CCCC2)nc(N2CCOCC2)n1 [Compound A7]",
    "IC50": "≤ 100 nM"
  },
  {
    "compound": "Cc1ccccc1CC1(Nc2nc(N3CCOCC3)nc(-n3c(C(F)F)nc4ccccc43)n2)CC1 [Compound A8]",
    "IC50": "100 to 200 nM"
  },
  {
    "compound": "FC(F)c1nc2ccccc2n1-c1nc(NC2(Cc3ccc(Br)cc3)CCCCC2)nc(N2CCOCC2)n1 [Compound A6]",
    "IC50": "> 500 nM"
  },
  {
    "compound": "FC(F)c1nc2ccccc2n1-c1nc(NC2(c3ccccc3)CCCC2)nc(N2CCOCC2)n1 [Compound A3]",
    "IC50": "> 500 nM"
  },
  {
    "compound": "FC(F)c1nc2ccccc2n1-c1nc(NC2(Cc3ccccc3Cl)CC2)nc(N2CCOCC2)n1 [Compound A10]",
    "IC50": "200 to 500 nM"
  }
]
